# Experimental system: enzyme I (Escherichia coli)
# Construct: made in house
# Protocol: Pyruvate formation coupled to lactate dehydrogenase (uncoupling / phosphatase activity)
# Type: biochemical, E. coli
# Assay conditions: Table 2
No end group written: not given here.
For each of the substances below, state its uncoupling P1/peptide/h.
Respond numerically; units are P1/peptide/h and should not be typed.

Qu. Using enzyme I (Escherichia coli) as the test system, report measured uncoupling P1/peptide/h of KKWHRRKK [compound 26] .
Ans. 0.29

Qu. Using enzyme I (Escherichia coli) as the test system, report measured uncoupling P1/peptide/h of KKFHIRKR [compound 28] .
Ans. 0.31

Qu. Using enzyme I (Escherichia coli) as the test system, report measured uncoupling P1/peptide/h of KKFHLRK [compound 20, KKFHLRK] .
Ans. 0.49

Qu. Using enzyme I (Escherichia coli) as the test system, report measured uncoupling P1/peptide/h of KKFDLRK [compound 22, KKFDLRK] .
Ans. 0.05

Qu. Using enzyme I (Escherichia coli) as the test system, report measured uncoupling P1/peptide/h of KKWHKRKK [compound 27] .
Ans. 0.215

Qu. Using enzyme I (Escherichia coli) as the test system, report measured uncoupling P1/peptide/h of KKWHLRKR [compound 24] .
Ans. 0.3

Qu. Using enzyme I (Escherichia coli) as the test system, report measured uncoupling P1/peptide/h of XXKKWHLRKRXX [compound 23] .
Ans. 0.43

Qu. Using enzyme I (Escherichia coli) as the test system, report measured uncoupling P1/peptide/h of KGWHKRKK [compound 25] .
Ans. 0.23

Hello, the source for this data is patent US6777176B1, in case you need it.
